- Tested on: Escherichia coli TOP10;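 also: peptides expressed intracellularly from a pBAD plasmid library in pooled LB shake-flask culture, induced with 0.3% L-arabinose, DNA abundance read by NGS, three biological replicates, DESeq2 with apeglm shrinkage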
- assay explanation: shrunken log2 fold change of peptide-encoding DNA abundance (4.5 h post-induction vs induction); higher = less antimicrobial activity (less host growth inhibition)
- experimental parameters: time post-induction: 4.5 h; library: site-saturation at positions 5, 18, 19, 20
Assignment: determine reported shrunken log2 fold change for the given sequences.
Give only the figure.

Give reported shrunken log2 fold change value for "RRIRQRPPRLPRPRPRPWTSPRP" 0.0602

Give reported shrunken log2 fold change value for "RRIRGRPPRLPRPRPRPHRYPRP" 0.0948

Give reported shrunken log2 fold change value for "RRIRDRPPRLPRPRPRPWWYPRP" -0.738

Give reported shrunken log2 fold change value for "RRIRQRPPRLPRPRPRPYYNPRP" -0.392

Give reported shrunken log2 fold change value for "RRIRHRPPRLPRPRPRPYMFPRP" -0.319

Give reported shrunken log2 fold change value for "RRIRGRPPRLPRPRPRPAHQPRP" 0.65

Give reported shrunken log2 fold change value for "RRIRHRPPRLPRPRPRPQCIPRP" -0.235

Give reported shrunken log2 fold change value for "RRIRVRPPRLPRPRPRPEDYPRP" 0.0316

Give reported shrunken log2 fold change value for "RRIRWRPPRLPRPRPRPFCHPRP" -0.0562

Give reported shrunken log2 fold change value for "RRIRARPPRLPRPRPRPCTPPRP" -0.0509

Give reported shrunken log2 fold change value for "RRIRFRPPRLPRPRPRPVITPRP" -0.666

Give reported shrunken log2 fold change value for "RRIRWRPPRLPRPRPRPMQSPRP" 0.185

Give reported shrunken log2 fold change value for "RRIRIRPPRLPRPRPRPDTTPRP" -0.243

Give reported shrunken log2 fold change value for "RRIRWRPPRLPRPRPRPNQGPRP" 0.0374

Give reported shrunken log2 fold change value for "RRIRYRPPRLPRPRPRPRVQPRP" -0.617
